Values compiled from patent US11071730B2.

Assignment: determine reported pIC50 for the given compounds.
Study target: UniProt:Q92918
Sequence (Q92918 17-274): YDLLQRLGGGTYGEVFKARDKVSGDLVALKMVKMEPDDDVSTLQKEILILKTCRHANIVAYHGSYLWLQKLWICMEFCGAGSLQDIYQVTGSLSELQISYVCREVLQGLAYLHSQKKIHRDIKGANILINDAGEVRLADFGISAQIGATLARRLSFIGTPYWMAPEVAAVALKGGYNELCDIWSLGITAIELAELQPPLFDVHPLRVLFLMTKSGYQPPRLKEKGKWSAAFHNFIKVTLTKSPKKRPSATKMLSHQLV
Experiment: HPK1 IC50 Assay (TR-FRET biochemical kinase assay, STK S1 peptide substrate)
Settings: recombinant human HPK1 kinase domain 0.15 nM, 10 μM ATP, 1 μM STK S1 peptide; geometric mean of multiple experiments
pIC50 field: float, defined as -log10 of concentration (mol/L).

Task: Suppose we examine the compound CC(C)n1cnc2cc(-c3ccc4c(c3)N([C@H]3C[C@@H](N5CCC(C)(C)C5)C3)C(=O)C43CCN(C(=O)C4(C)CCO4)CC3)nc(Nc3ccncc3F)c21 (stereo partly shown) ; what pIC50 value has been reported?
Result: 10.00

Task: Suppose we examine the compound CC(C)n1cnc2cc(-c3ccc4c(c3)N([C@H]3C[C@@H](N5CCC(C)(C)C5)C3)C(=O)C43CCN(C(=O)C4CCO4)CC3)nc(Nc3ccncc3F)c21 (mixture of isomers) [Example 78] ; what pIC50 value has been reported?
Result: 9.15

Task: Suppose we examine the compound CC(C)n1cnc2cc(-c3ccc4c(c3)N([C@H]3C[C@@H](N5CC[C@@H](F)C5)C3)C(=O)C43CCN(C4COC4)CC3)nc(Nc3ccncc3F)c21 ; what pIC50 value has been reported?
Result: 9.22

Task: Suppose we examine the compound CC(C)n1cnc2cc(-c3ccc4c(c3)N([C@H]3C[C@@H](N5C6CCC5COC6)C3)C(=O)C43CCN(C4COC4)CC3)nc(Nc3ccncc3F)c21 ; what pIC50 value has been reported?
Result: 9.30
